protocolText: NCI Yeast Anticancer Drug Screen. Data for the mlh1 rad18 strain (AID 175)
testParameters: S. cerevisiae mlh1 rad18 strain growth inhibition, stronger effect = higher value; at 50.0 µM unless noted
Compounds without any hit were thinned out: in the full panel of roughly 79,000, 15% have a hit.
Values of growth inhibition greater than or equal to 10% map to Yes; values below map to No.

compound: O=C(CCc1ccccc1)On1nnc2ccccc2c1=O
labelClass: No
--
compound: CCOC(=O)C1=C(c2ccccc2)OC(N)=C(C#N)C1c1ccccc1Cl (stereo not drawn)
labelClass: Yes
--
compound: Cc1cc(CSC(=N)N)c(CSC(=N)N)cc1C
labelClass: No
--
compound: c1ccc2c(c1)Cc1cc3ccccc3cc1C2
labelClass: No
--
compound: COc1ccccc1N=Nc1c(O)n(-c2ccccc2)c(=S)n(-c2ccccc2)c1=O
labelClass: No
--
compound: O=C(Nc1ccccc1)Nc1ccc2c(c1)oc1ccccc12
labelClass: Yes
--
compound: Cc1nc(Nc2ccc(Cl)cc2)c2cnn(-c3ccc(Cl)cc3)c2n1
labelClass: No
--
compound: Clc1nc2n(c1/C=C/c1cccs1)CCS2
labelClass: Yes
--
compound: O=C(Cc1nc2ccc(C(=O)c3ccccc3)cc2[nH]c1=O)C(=O)Nc1ccc(C(F)(F)F)cc1[N+](=O)[O-]
labelClass: Yes
--
compound: COc1cc(C2c3cc4c(cc3OC3(O)CCCC23)OCO4)cc(OC)c1OC (stereo not drawn)
labelClass: No
--
compound: N#C/C(=C\c1cccc2ccccc12)c1ccc(Cl)cc1
labelClass: No
--
compound: CS(=O)(=O)Nc1c(-c2ccccc2)oc2ccccc2c1=O
labelClass: No
--
compound: COc1ccc(/C(=C(/c2ccc(OC)cc2)C2CC2)C2CC2)cc1
labelClass: Yes

Numbers sourced from PubChem BioAssay (NCI).
